Tested on: HT29 colon
Assay: NCI-60 one-dose screen, 48 h (100 = growth as untreated, 0 = no growth, -100 = all killed)
Details: 10 µM
Protocol: Growth inhibition of the HT29 human tumor cell line is measured as a screen for anti-cancer activity. Cells are grown in 96 well plates and exposed to the test compound for 48 hours. Compounds are tested at a single concentration, which is 10^-5 M for most compounds. The reported endpoint is percent growth (GI% or GIPRCNT), where numbers from 0 - 100% represent growth inhibition, and numbers from -100% - 0 represent cell death. For example, a value of 40 represents 60% growth inhibition. […]
This is part of a sample that, as a whole, favours compounds with a hit. Of some 83,000 tested, about 20% had one in any assay.
endpoint: growth (%)
Give bare numbers, in %.

A selection of reference data follows.
compound	experimental.system	reported.measurement
Cc1ccc(/C(CSc2nnc(-c3c[nH]c4ccccc34)n2-c2ccccc2)=N/O)cc1	HT29 colon	6.35
Nc1cc(-c2cccc(C(=O)NCc3ccc4c(c3)OCO4)c2)ccn1	HT29 colon	111
OCc1[nH]nc2cc(Nc3ncc4ccc(Br)c(OC5CCC(O)CC5)c4n3)ccc12 (stereo not drawn)	HT29 colon	-41.1
COc1ccc(C(=O)/C=C/c2cc(C(F)(F)F)cc(C(F)(F)F)c2)cc1S(N)(=O)=O	HT29 colon	-59.9

Value sought for every listed compound: growth.
1. O=C(Nc1ccncc1)c1ccc(-n2c(=O)[nH]c3ccccc3c2=O)cc1
2. Cc1ccc(NC(=O)c2ccc(-n3c(=O)[nH]c4ccccc4c3=O)cc2)cc1
3. CN1CCN(c2ccc(Nc3nc(NCCCNC(=O)C4CCCCC4)c4sccc4n3)cc2)CC1
4. CC(=O)NNc1ccc2nnc(-c3ccc(Br)cc3)n2n1
5. COc1ccc(C(C)=C(c2ccc(OCCCN(C)C)cc2)c2ccc(OCCCN(C)C)cc2)cc1
6. COc1ccc(/C=N/N=C(\C)c2ccc3c(c2)Nc2ccccc2S3)cc1O
7. C/C(=C\CSc1ccccc1C(=O)O)CCCC(C)CCCC(C)CCCC(C)C (stereo not drawn)

[105, 104, -1.75, 103, -94.3, 85.3, 59.4]

Value sought for every listed compound: growth.
1. COc1ccc2nc(Cl)c(-c3cc(-c4ccccc4)nc(N)n3)cc2c1
2. COc1ccc(-c2cc(C(=O)N=Nc3c(O)[nH]c4ccccc34)c3ccccc3n2)cc1
3. C=C[C@H]1[C@H](O[C@@H]2OC(CO)[C@@H](O)[C@H](O)C2OC(=O)c2c(O)cc(O)cc2-c2cccc(O)c2)OC=C2C(=O)OCC[C@H]21 (stereo partly drawn)
4. N#Cc1c(NC(=O)c2ccc(C(O)(C(F)(F)F)C(F)(F)F)cc2)sc2c1CCC(=O)C2

[7.7, -15.1, 108, -34.5]

Value sought for every listed compound: growth.
1. O=C1NC(=NC23CC4CC(CC(C4)C2)C3)N/C1=C\c1ccc2ncoc2c1
2. CCCn1c(=O)c2[nH]c(-c3ccc(OCc4nc5ccc(C#N)cc5[nH]4)cc3)nc2n(CCC)c1=O
3. COc1ccccc1NCc1ccc(CO)n1-c1ccc(C)cc1
4. O=c1[nH]c2ccccc2cc1CSc1ccc(Nc2nccc(-c3ccc4c(c3)OCO4)n2)cc1
5. N#Cc1ccc(-c2nn(-c3ccc(C(=O)O)cc3)cc2CNc2cc(Cl)cc(Cl)c2)cc1

4.66
88.5
102
74.3
39.7

###

system: UACC-257 melanoma; test: NCI-60 one-dose screen, 48 h; details: 10 µM
This is part of a sample that, as a whole, favours compounds with a hit. Of some 83,000 tested, about 20% had one in any assay. The source made the active and inactive calls. How the source made its calls: active means growth percent below 10; inactive means the rest.
Use one of these outcomes when replying: y for active, n for inactive

Answered cases to consult:
compound	class.label
O=c1oc2ccc(-c3ccc(F)cc3F)cc2c(=O)n1-c1ccc(Cl)c(C(F)(F)F)c1	y
COc1ccc(-c2c(N)c(=O)n(C)c3ccccc23)cc1	n
C=CC(=O)Nc1nc(-c2cccc(NS(=O)(=O)c3cccc4c(N(C)C)cccc34)c2)cs1	y
Nc1nc(Nc2ccc(Cl)cc2)nn1Cc1cccc(Br)c1	n
O=C(Nc1ccc(F)c(Cl)c1)c1cc(-c2ccc(F)cc2F)ccc1O	y
O/N=C(\CSc1nnc(-c2c[nH]c3ccccc23)n1-c1ccccc1)c1ccc(Br)cc1	y
N#Cc1c(Cl)nc(SCc2ccc(F)cc2)nc1-c1ccc(F)cc1	n
O=C(c1ccc(O)cc1)C1[C@H](c2ccc(Br)cc2)[C@@H](c2ccccc2)NC12C(=O)Nc1ccccc12 (stereo not given in full)	n

What was the test verdict on O=C(c1ccc(Cl)cc1)C1[C@H](c2ccccc2Br)[C@@H](c2ccccc2)NC12C(=O)Nc1ccccc12 (stereo not given in full) ?
n

Try this compound next: Cc1ccc(-c2nc(Nc3ccccc3C(=O)O)c3ccccc3n2)cc1
n

Try this compound next: COc1ccc(Nc2nc(N)n(Cc3cccc(Br)c3)n2)cc1
y

###

system: OVCAR-3 ovarian; assay: NCI-60 one-dose screen, 48 h (100 = growth as untreated, 0 = no growth, -100 = all killed); details: 10 µM
The panel holds about 83,000 compounds, 20% with a hit somewhere; the sample as a whole holds those more often.
So basically: is growth under 40%? Then true (1). Not under? Then false (0).

Answered cases to consult:
molecule	class.label
COc1ccc(C(=O)Nc2sc3c(c2C#N)CCC(=O)C3)cc1C(F)(F)F	true (1)
COc1ccc(C2NC(=S)NC(C)=C2C(=O)OC(C)C)cc1OC (stereo not given)	false (0)
CCCCSc1nc(Nc2ccc(/C(C)=N/NC(N)=S)cc2)c(C#N)c(-c2ccc(F)cc2)n1	true (1)
CCCSc1nc(NC2CC2)c(C#N)c(-c2ccc(OC)cc2)n1	false (0)

Turning now to a further record.
Is it true that growth reported for O=c1nc(-c2ccccc2)cc(-c2cc3ccccc3nc2Cl)[nH]1 is less than 40%?
true (1)

###

Hi there, I'd appreciate the recorded growth for every entry that follows.
system: HCT-116 colon; assay: NCI-60 one-dose screen, 48 h (100 = growth as untreated, 0 = no growth, -100 = all killed); details: 10 µM
Compounds without any hit were thinned out: in the full panel of roughly 83,000, 20% have a hit.
Answers are plain numbers, in %.

molecule	reported.measurement
O=c1nc(-c2ccccc2)cc(-c2cc3ccccc3nc2Cl)[nH]1	-91.6

Value sought for every listed molecule: growth.
1. CCOC(=O)C1=C(N)N(c2ccccc2)C2=C(C(=O)CC(C)(C)C2)C1c1ccccc1OC (centres undefined)
2. CCCCCCCCCCCCCCCCCCCC(=O)NCCc1c[nH]c2ccc(OC(=O)NOCCOCCOCCOCCOCCOCCOCCOCCOCCOCCOCCOCCOCCOCCOCCOCCOCCOCCOCCOCCOCCOCCOC)cc12

101
-21.7

Value sought for every listed molecule: growth.
1. O=C(NO)c1ccc(CN2CCN(c3nc(-c4ccccc4)c4ccccc4n3)CC2)cc1
2. COc1cc2c(cc1OC)/C(=C\c1sc(Nc3ccc(O)cc3)nc1O)C(C(=O)O)=N2

18.9
21.4

Value sought for every listed molecule: growth.
1. O=C(CSc1nnc(-c2c[nH]c3ccccc23)n1-c1ccccc1)Nc1ccc(C(=O)/C=C/c2ccc(Br)cc2)cc1
2. COc1ccc(/C=C/C(=O)c2ccc(N3CCN(C)CC3)cc2)c(C(F)(F)F)c1
3. CN(C(=O)c1ccc(C(C)(C)C)cc1)c1sc2c(c1C#N)CCC(=O)C2
4. O=C(Nc1nc2ccccc2s1)c1ccc(Br)cc1

1. -32.4
2. 11.4
3. -9.14
4. 86.2

###

test system: TK-10 renal; experiment: NCI-60 one-dose screen, 48 h; settings: 10 µM
Compounds without any hit were thinned out: in the full panel of roughly 83,000, 20% have a hit. The source made the active and inactive calls. The calls were made as follows: active = growth percent below 10; inactive = the rest.
Use one of these outcomes when replying: active, inactive

Answered cases to consult:
compound	class.label
Cc1noc2c(Cc3ccccc3)nn(CC(=O)N/N=C/c3ccc(F)cc3)c(=O)c12	inactive
Nc1nc(Nc2ccccc2)nn1Cc1c(Cl)cccc1Cl	inactive
Clc1ccc2c(N/N=C/c3c[nH]c4ccc(Br)cc34)ccnc2c1	active
CC(=O)NCC1=C(C)C=C2C(=O)[C@](C)(O)C3(CC3)C(C)=C21	active

What was the test verdict on COC[C@@H](CC(C)C)N=C1NC(=O)/C(=C/c2ccc3ncsc3c2)N1 ?
inactive

Try this compound next: O=C1CCC(N2Cc3cc(CC(=O)Nc4ccc(N5CCCCC5)cc4)ccc3C2=O)C(=O)N1 (centres undefined)
inactive

###

test system: EKVX NSCLC; assay: NCI-60 one-dose screen, 48 h; conditions: 10 µM
This is part of a sample that, as a whole, favours compounds with a hit. Of some 83,000 tested, about 20% had one in any assay. Active and inactive are the calls of the source. The calls were made as follows: active = growth percent below 10; inactive = the rest.
Use one of these outcomes when replying: active, inactive

Answered cases to consult:
molecule	experimental.system	class.label
Cn1cc(/C=N/Nc2ccnc3cc(Cl)ccc23)c2ccccc21	EKVX NSCLC	active
CC(=O)C1=C(C)NC(SCC(=O)Nc2ccc(S(=O)(=O)Nc3cc(C)on3)cc2)=NC1c1ccccc1 (stereo not given)	EKVX NSCLC	inactive
Cc1cccc(NC(=O)CSc2nc3ccc(F)cc3c(=O)n2-c2ccc(Cl)cc2)c1C	EKVX NSCLC	inactive
COc1cccc(-c2ccnc(/N=C(\N)Nc3ccc(S(=O)(=O)Nc4nc(C)cc(C)n4)cc3)n2)c1	EKVX NSCLC	inactive

Turning now to a further record.
What was the test verdict on CCCSc1nc(NC2CC2)c(C#N)c(-c2ccc(OC)cc2)n1 ?
inactive
